Assay: Particle size of dimethyl fumarate by Malvern laser diffraction
Format: physicochemical
Conditions: fraction of particles ≤10 μm; Table 1
Counter-ions that a name gives are not always drawn.
Checkbox rule: ≤10 μm lower than 3% = condition met; ≤10 μm not lower than 3% = condition not met.

Past entries and their recorded results:
| molecule | assigned category |
| --- | --- |
| COC(=O)/C=C/C(=O)OC [2014-4281-A.8, dimethyl fumarate] | condition not met |
| COC(=O)/C=C/C(=O)OC [Batch A14DS0977, dimethyl fumarate] | condition met |
| COC(=O)/C=C/C(=O)OC [Batch A14DS1097, dimethyl fumarate] | condition met |
| COC(=O)/C=C/C(=O)OC [Batch 11P1310, dimethyl fumarate] | condition not met |
| COC(=O)/C=C/C(=O)OC [2014-4281-A.4, dimethyl fumarate] | condition met |

Dear reviewer, please state whether COC(=O)/C=C/C(=O)OC [Batch A14DS0978, dimethyl fumarate] has ≤10 μm strictly beneath 3%.
condition met
